# target: Gal(b1-3)GlcNAc(b1-3)Gal(b1-4)[Fuc(a1-3)]GlcNAc(b1-6)[Gal(b1-3)GlcNAc(b1-3)]Gal(b1-4)Glc
# assay_comment: glycan array binding signal (z-score within array); higher = stronger binding
# cond: glycan notation: IUPAC condensed, linker removed
This is one part of a sample in which the strongest signals are shown more often than they occur.
Entries and their measured glycan array binding signal (z-score) follow.
outcome_measure: glycan array binding signal (z-score)

- binder: "CCL1 (Coprinopsis cinerea) (protein) MDTQAKPPAGRYVIYNRVLSPNGEKLALTYPGYQREALTLTPLHHSANQIWILNNWDATTSSLTPETARNTQVGWGSGNVPIVLPPGNYVWTLASSAGGYIIQDGGKTVYWNAGEAVANTKVSIGGDNGLQARWIFERV"
  outcome_measure: "glycan array binding signal (z-score)"
  result: 0.276
- binder: "LysMD3 (Homo sapiens), Q7Z3D4 (protein) MAGRHQNRSFPLPGVQSSGQVHAFGNCSDSDILEEDAEVYELRSRGKEKVRRSTSRDRLDDIIVLTKDIQEGDTLNAIALQYCCTVADIKRVNNLISDQDFFALRSIKIPVKKFSSLTETLCPPKGRQTSRHSSVQYSSEQQEILPANDSLAYSDSAGSFLKEVDRDIEQIVKCTDNKRENLNEVVSALTAQQMRFEPDNKNTQRKDPYYGADWGIG"
  outcome_measure: "glycan array binding signal (z-score)"
  result: -0.547
- binder: "rCnSL-proA (Clitocybe nebularis) (protein) AAFFSLVVLLALLPFGIHASALPSTELTPRVNPNLPGPNDVFVGFRGTNNIVGAIYEKDGIKDTPLNNGADAEMGPGSYITDGLFTARIFASGSAGNNPGTTATVCKIYASGVQWRGAPKGYIPVAYFGNGPTAEQRRQTYLRTLGLPGTAIRFGNLNTNPGQGPTAPRQMVVPPGPLRSLLKASCFPAADTRLPQTLHYFEKRVDWNIITAADSQTWGH"
  outcome_measure: "glycan array binding signal (z-score)"
  result: 0.293
- binder: "AAL (Aleuria aurantia), P18891 (protein) PTEFLYTSKIAAISWAATGGRQQRVYFQDLNGKIREAQRGGDNPWTGGSSQNVIGEAKLFSPLAAVTWKSAQGIQIRVYCVNKDNILSEFVYDGSKWITGQLGSVGVKVGSNSKLAALQWGGSESAPPNIRVYYQKSNGSGSSIHEYVWSGKWTAGASFGSTVPGTGIGATAIGPGRLRIYYQATDNKIREHCWDSNSWYVGGFSASASAGVSIAAISWGSTPNIRVYWQKGREELYEAAYGGSWNTPGQIKDASRPTPSLPDTFIAANSSGNIDISVFFQASGVSLQQWQWISGKGWSIGAVVPTGTPAGW"
  outcome_measure: "glycan array binding signal (z-score)"
  result: 0.584
- binder: "CLEC5A (Homo sapiens), Q9NY25 (protein) MNWHMIISGLIVVVLKVVGMTLFLLYFPQIFNKSNDGFTTTRSYGTVSQIFGSSSPSPNGFITTRSYGTVCPKDWEFYQARCFFLSTSESSWNESRDFCKGKGSTLAIVNTPEKLKFLQDITDAEKYFIGLIYHREEKRWRWINNSVFNGNVTNQNQNFNCATIGLTKTFDAASCDISYRRICEKNAK"
  outcome_measure: "glycan array binding signal (z-score)"
  result: -0.154
- binder: "Sp8391B-bot-388-20-388 (Bacteroides ovatus) (protein) GCQNNDENEQHYDNKLFISASNFTKEILFKAGDTNVETGLSVAIAKPEEHDIKVTMSPAPELLSTYKLAYYDETAVLLSEEHYSMPETSTTIKSGSIVSPELPIEFINTGELDIKTTYVLPVTIKSVEGIGVLQSAKTYYYVFRGASLINVVCNISRNRAYPDFKNDSKFNNLTENTMEILFKANSFPNTLNTLMGIESNYLLRIGDATIPNNQLQVATSVNNCTSADLQLESGKWYHVAVAFNKGNVKVYINGVEKLSGSTGKSSVSLGAKHTNEEDGSRCFWVGYSYKDDRYFDGVVSEVRIWNRALTAEEIQATNHFYTIEPESEGLIAYWKFDEGSGTVAKDYSVSGYDLTIEKEPKWESVSLPQ"
  outcome_measure: "glycan array binding signal (z-score)"
  result: 12.8
- binder: "Banana lectin (Musa acuminata) (protein) MNGAIKVGAWGGNGGSAFDMGPAYRIISVKIFSGDVVDGVDVTFTYYGKTETRHYGGSGGTPHEIVLQEGEYLVGMAGEVANYHGAVVLGKLGFSTNKKAYGPFGNTGGTPFSLPIAAGKISGFFGRGGKFLDAIGVYLEPLEHHHHHH"
  outcome_measure: "glycan array binding signal (z-score)"
  result: -0.216
- binder: "Langerin K313I (Homo sapiens), Q9UJ71 (protein) STLNAQIPELKSDLEKASALNTKIRALQGSLENMSKLLKRQNDILQVVSQGWKYFKGNFYYFSLIPKTWYSAEQFCVSRNSHLTSVTSESEQEFLYKTAGGLIYWIGLTKAGMEGDWSWVDDTPFNKVQSARFWIPGEPNNAGNNEHCGNIKAPSLQAWNDAPCDITFLFICKRPYVPSEP"
  outcome_measure: "glycan array binding signal (z-score)"
  result: -0.333
- binder: "DBA (Dolichos biflorus) (protein) ANIQSFSFKNFNSPSFILQGDATVSSGKLQLTKVKENGFPLRFPSGRAFYSSPIQIYDKFTGAVASWATSFTVKISAPSKASFADGIAFALVPVGSEPRRNGGYLGVFDSDVYNNSAQTVAVEFDTLSNSGWDPSMKHIGIDVNSIKSIATVSWDLANGENAEILITYNAATSLLVVSLVHPSRRTSYILSERVDITNELPEYVGVGFSATTGLSEGYIETHDVLSWSFASRLPDDSTAEPLDLARYLVRNVL"
  outcome_measure: "glycan array binding signal (z-score)"
  result: -0.1
- binder: "Cohesin-hDCIR (Homo sapiens) (protein) LDDLDAVRIKVDTVNAKPGDTVRIPVRFSGIPSKGIANCDFVYSYDPNVLEIIEIEPGDIIVDPNPDKSFDTAVYPDRKIIVFLFAEDSGTGAYAITKDGVFATIVAKVKEGAPNGLSVIKFVEVGGFANNDLVEQKTQFFDGGANVGDTTEPATPTTPVTTPTTTDDLDAASQKYSQLLEKKTTKELVHTTLECVKKNMPVEETAWSCCPKNWKSFSSNCYFISTESASWQDSEKDCARMEAHLLVINTQEEQDFIFQNLQEESAYFVGLSDPEGQRHWQWVDQTPYNESSTFWHPREPSDPNERCVVLNFRKSPKRWGWNDVNCLGPQRSVCEMMKIHLHHHHHH"
  outcome_measure: "glycan array binding signal (z-score)"
  result: -0.655
- binder: "EULS2 M2 (Oryza sativa) (protein) MVYCRANPNYAMTARNGAVVLAPANPKDEYQHWIKDMRWSTSIKDEEGYPAFALVNKATGQAIKHSLGQSHPVRLVPYNPEVMDESVLWTESRDVGNGFRCIRMVNNIYLNFDAFHGDKYHGGVRDGTDIVLWKLCEGDSQRWKIQPYYILEQKLISEEDLNSAVDHHHHHH"
  outcome_measure: "glycan array binding signal (z-score)"
  result: -0.897
